Origin of the recorded values: ChEMBL document CHEMBL1909046

Assay remarks: DRUGMATRIX: Calcium Channel Type L, Dihydropyridine radioligand binding (ligand: [3H] Nitrendipine)
Assay type: cell membranes, Rattus norvegicus, Wistar, Cerebral cortex, Membrane
Experimental setup: Not Active = under 50% inhibition at 10 µM; read-out: Ki
pKi: −log10 of the molar value.

- Compound: "COC(=O)C1=C(C)NC(C)=C(C(=O)OC)C1c1ccccc1[N+](=O)[O-]"
  pKi: 7.51
- Compound: "Fc1ccc([C@@H]2CCNC[C@H]2COc2ccc3c(c2)OCO3)cc1"
  pKi: 6.02

###

Target under test: Cysteinyl leukotriene receptor 1 (Homo sapiens, UniProt Q9Y271); further: in other assays of this panel Not Active means under 50% inhibition at 10 µM
Sequence (Q9Y271 whole entry): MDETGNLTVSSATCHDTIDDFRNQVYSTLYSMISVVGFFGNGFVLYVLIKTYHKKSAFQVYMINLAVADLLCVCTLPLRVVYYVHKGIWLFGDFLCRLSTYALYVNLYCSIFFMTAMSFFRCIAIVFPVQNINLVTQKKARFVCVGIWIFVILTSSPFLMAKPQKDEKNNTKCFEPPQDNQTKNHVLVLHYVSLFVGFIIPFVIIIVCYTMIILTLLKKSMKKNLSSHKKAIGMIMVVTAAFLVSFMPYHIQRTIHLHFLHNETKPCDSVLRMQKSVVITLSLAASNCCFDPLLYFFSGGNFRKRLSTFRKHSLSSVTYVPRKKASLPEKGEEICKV
Format: cell membranes, CHO-K1, Membrane
Experimental setup: cho-k1
Where a SMILES comes first, the peptide text is derived from it. Bridges are numbered along the chain shown (N, C = ends). [ ]: non-standard residue; d: D form. The star is where a group is joined. Ileψ(thiazoline)Cys = CC[C@H](C)[C@H](N)C1=N[C@H](C(=O)*)CS1; dOrn = NCCC[C@@H](N)C(=O)O
Test readout: IC50

- Molecule: "CC[C@H](C)[C@H](N)C1=N[C@H](C(=O)N[C@@H](CC(C)C)C(=O)N[C@H](CCC(=O)O)C(=O)N[C@H](C(=O)N[C@H]2CCCCNC(=O)[C@H](CC(N)=O)NC(=O)[C@@H](CC(=O)O)NC(=O)[C@H](Cc3cnc[nH]3)NC(=O)[C@@H](Cc3ccccc3)NC(=O)[C@H]([C@@H](C)CC)NC(=O)[C@@H](CCCN)NC2=O)[C@@H](C)CC)CS1 [BACITRACIN] ({Ileψ(thiazoline)Cys}-L[dE]IK[dOrn]I[dF]H[dD]N; lactam 4-C)"
  Result: "Not Active"
- Molecule: "Nc1nc2c(ncn2COC(CO)CO)c(=O)[nH]1"
  Result: "Not Active"
